Tested on: Echinochloa crus-galli
Experiment: Test Example 2: herbicidal effect test by treatment during growing period in paddy rice cultivation (seven days after seeding)
Type: in vivo
Settings: 120 g/10a active ingredient, assessed 14 days after treatment, dry weight vs untreated area
Measured Herbicidal rate (%) Echinochloa crus-galli, listed per entry for reference.
PROPERTY_MEASURED: Herbicidal rate (%) Echinochloa crus-galli

# COMPOUND, VALUE_REPORTED
data = [
    ("CCCCCC(c1ccccc1)n1oc(=O)c(Cc2ccccc2N(S(=O)(=O)C(F)(F)F)S(=O)(=O)C(F)(F)F)c1C (stereo not shown)", 60),
    ("Cc1c(Cc2ccccc2NS(=O)(=O)C(F)(F)F)c(=O)on1CC1CCCCC1", 100),
    ("Cc1c(Cc2ccccc2NS(=O)(=O)C(F)(F)F)c(=O)on1CCOCc1ccccc1", 80),
    ("CCCCC(c1ccccc1)n1oc(=O)c(Cc2ccccc2NS(=O)(=O)C(F)(F)F)c1C (stereo not shown)", 90),
]

* * *

Tested on: broad leaf weeds (Lindernia pyxidaria and Monochoria vaginalis)
Assay: Test Example 1: herbicidal effect test by treatment of rice paddy soil (immediately after seeding)
Type: in vivo
Details: Monochoria vaginalis, 120 g/10a active ingredient, dry weight vs untreated area, 14 days after treatment
Description: Herbicidal Effect Test by Treatment of Rice Paddy Soil Wagner pots with an area of 1/10000 ares were filled with a paddy soil, and after adding water, a compound fertilizer (N:P:K=17:17:17) was added, followed by soil puddling. […] This test was conducted in a double system per one agent solution concentration area, and the herbicidal rates (%) were determined by the following equation (Math. 1) on 14 days after the treatment with the agents. […]

# COMPOUND, Herbicidal rate (%) Monochoria vaginalis
records = [
    ("CCc1c(Cc2ccccc2NS(=O)(=O)C(F)(F)F)c(=O)on1C(C)C [Compound 1-63]", 100),
    ("Cc1ccc(C(C)n2oc(=O)c(Cc3ccccc3NS(=O)(=O)C(F)(F)F)c2C)cc1 (stereo not shown) [Compound 1-208]", 90),
    ("CCOC(=O)N(c1ccccc1Cc1c(C)n(CC(C)CC)oc1=O)S(=O)(=O)C(F)(F)F (stereo not shown) [Compound 1-611]", 80),
    ("Cc1c(Cc2ccccc2N(S(=O)(=O)C(F)(F)F)S(=O)(=O)C(F)(F)F)c(=O)on1CCc1ccc(F)cc1 [Compound 1-1044]", 40),
    ("Cc1c(Cc2ccccc2N(S(=O)(=O)C(F)(F)F)S(=O)(=O)C(F)(F)F)c(=O)on1C(c1ccccc1)C(C)C (stereo not shown) [Compound 1-1040]", 90),
    ("CCCCC(c1ccccc1)n1oc(=O)c(Cc2ccccc2N(S(=O)(=O)C(F)(F)F)S(=O)(=O)C(F)(F)F)c1C (stereo not shown) [Compound 1-1041]", 90),
    ("Cc1c(Cc2ccccc2N(C(=O)OCc2ccccc2)S(=O)(=O)C(F)(F)F)c(=O)on1C(C)c1ccccc1 (stereo not shown) [Compound 1-796]", 90),
]

* * *

System: Echinochloa crus-galli
Assay: Test Example 2: herbicidal effect test by treatment during growing period in paddy rice cultivation (seven days after seeding)
Assay type: in vivo
Conditions: 120 g/10a active ingredient, assessed 14 days after treatment, dry weight vs untreated area
PROPERTY_MEASURED: Herbicidal rate (%) Echinochloa crus-galli

# COMPOUND, VALUE_REPORTED
rows = [
    ("COCC(C)n1oc(=O)c(Cc2ccccc2N(C(=O)C2CC2)S(=O)(=O)C(F)(F)F)c1C (centres unmarked)", 90),
    ("COc1ccc(Cn2oc(=O)c(Cc3ccccc3N(S(=O)(=O)C(F)(F)F)S(=O)(=O)C(F)(F)F)c2C)cc1", 70),
    ("CCC(C)n1oc(=O)c(Cc2ccccc2N(C(=O)C2CCCCC2)S(=O)(=O)C(F)(F)F)c1C (centres unmarked)", 90),
    ("C=CCn1oc(=O)c(Cc2ccccc2NS(=O)(=O)C(F)(F)F)c1C", 80),
    ("Cc1c(Cc2c(Cl)cccc2N(S(=O)(=O)C(F)(F)F)S(=O)(=O)C(F)(F)F)c(=O)on1C(C)C", 40),
    ("Cc1c(Cc2cc(Cl)ccc2NS(=O)(=O)C(F)(F)F)c(=O)on1C(C)C", 90),
    ("CSCCn1oc(=O)c(Cc2ccccc2N(C(C)=O)S(=O)(=O)C(F)(F)F)c1C", 90),
    ("COc1ccc(Cn2oc(=O)c(Cc3ccccc3NS(=O)(=O)C(F)(F)F)c2C)cc1", 80),
]

* * *

Item-by-item account of Herbicidal rate (%) Monochoria vaginalis
Tested on: broad leaf weeds (Lindernia pyxidaria and Monochoria vaginalis)
Experiment: Test Example 1: herbicidal effect test by treatment of rice paddy soil (immediately after seeding)
Format: in vivo
Conditions: Monochoria vaginalis, 120 g/10a active ingredient, dry weight vs untreated area, 14 days after treatment
Experimental: Herbicidal Effect Test by Treatment of Rice Paddy Soil Wagner pots with an area of 1/10000 ares were filled with a paddy soil, and after adding water, a compound fertilizer (N:P:K=17:17:17) was added, followed by soil puddling. […] This test was conducted in a double system per one agent solution concentration area, and the herbicidal rates (%) were determined by the following equation (Math. 1) on 14 days after the treatment with the agents. […]

# COMPOUND, Herbicidal rate (%) Monochoria vaginalis
rows = [
    ("Cc1c(Cc2c(Cl)cccc2N(S(=O)(=O)C(F)(F)F)S(=O)(=O)C(F)(F)F)c(=O)on1C(C)C [Compound 1-47]", 70),
    ("CCOC(=O)N(c1ccccc1Cc1c(C)n(C(C)CC)oc1=O)S(=O)(=O)C(F)(F)F (centres unmarked) [Compound 1-605]", 90),
    ("COC(=O)N(c1ccccc1Cc1c(C)n(C(C)c2ccccc2)oc1=O)S(=O)(=O)C(F)(F)F (centres unmarked) [Compound 1-598]", 90),
    ("Cc1c(Cc2ccccc2N(S(C)(=O)=O)S(=O)(=O)C(F)(F)F)c(=O)on1C(C)C [Compound 1-888]", 90),
    ("Cc1c(Cc2ccccc2N(S(=O)(=O)C(F)(F)F)S(=O)(=O)C(F)(F)F)c(=O)on1CCC(C)C [Compound 1-974]", 80),
    ("COCC(C)n1oc(=O)c(Cc2ccccc2N(C(=O)C(C)C)S(=O)(=O)C(F)(F)F)c1C (centres unmarked) [Compound 1-335]", 90),
    ("CCC(C)n1oc(=O)c(Cc2ccccc2N(C(=O)OCCOC)S(=O)(=O)C(F)(F)F)c1C (centres unmarked) [Compound 1-731]", 90),
    ("Cc1c(Cc2ccccc2N(C(=O)OCc2ccccc2)S(=O)(=O)C(F)(F)F)c(=O)on1CC(C)C [Compound 1-785]", 90),
    ("Cc1c(Cc2ccccc2N(C(=O)OCC(C)C)S(=O)(=O)C(F)(F)F)c(=O)on1C(C)c1ccccc1 (centres unmarked) [Compound 1-678]", 90),
    ("C=CCn1oc(=O)c(Cc2ccccc2NS(=O)(=O)C(F)(F)F)c1C [Compound 1-135]", 60),
    ("Cc1c(Cc2ccccc2NS(=O)(=O)C(F)(F)F)c(=O)on1S(=O)(=O)C(C)C [Compound 1-251]", 100),
    ("CCCC(C)n1oc(=O)c(Cc2ccccc2N(C(C)=O)S(=O)(=O)C(F)(F)F)c1C (centres unmarked) [Compound 1-299]", 80),
    ("Cc1c(Cc2ccccc2N(C(=O)c2ccccc2)S(=O)(=O)C(F)(F)F)c(=O)on1C(C)C [Compound 1-472]", 60),
    ("CCC(C)Cn1oc(=O)c(Cc2ccccc2NS(=O)(=O)C(F)(F)F)c1C (centres unmarked) [Compound 1-112]", 90),
    ("CCN(CC)C(=O)N(c1ccccc1Cc1c(C)n(C(C)c2ccccc2)oc1=O)S(=O)(=O)C(F)(F)F (centres unmarked) [Compound 1-886]", 90),
    ("Cc1c(Cc2ccccc2N(S(=O)(=O)C(F)(F)F)S(=O)(=O)C(F)(F)F)c(=O)on1Cc1ccccc1F [Compound 1-1012]", 100),
    ("Cc1c(Cc2ccccc2N(C(=O)C(C)C)S(=O)(=O)C(F)(F)F)c(=O)on1C(C)(C)C [Compound 1-329]", 90),
    ("Cc1c(Cc2ccccc2N(S(=O)(=O)C(F)(F)F)S(=O)(=O)C(F)(F)F)c(=O)on1Cc1ccc(C(C)(C)C)cc1 [Compound 1-1019]", 60),
    ("CCOC(=O)N(c1ccccc1Cc1c(C)n(C(C)COC)oc1=O)S(=O)(=O)C(F)(F)F (centres unmarked) [Compound 1-615]", 90),
    ("CCC(C)n1oc(=O)c(Cc2ccccc2N(C(=O)C2CCCO2)S(=O)(=O)C(F)(F)F)c1C (centres unmarked) [Compound 1-522]", 90),
    ("Cc1c(Cc2ccccc2N(S(=O)(=O)C(F)(F)F)S(=O)(=O)C(F)(F)F)c(=O)on1C(C)c1ccc(Cl)cc1 (centres unmarked) [Compound 1-1034]", 100),
    ("CSCCn1oc(=O)c(Cc2ccccc2N(C(=O)C2CC2)S(=O)(=O)C(F)(F)F)c1C [Compound 1-413]", 90),
    ("Cc1c(Cc2ccccc2N(C(=O)CC(C)C)S(=O)(=O)C(F)(F)F)c(=O)on1CC(C)C [Compound 1-354]", 90),
    ("CCC(C)n1oc(=O)c(Cc2ccccc2N(C(=O)c2ccc(C)cc2)S(=O)(=O)C(F)(F)F)c1C (centres unmarked) [Compound 1-494]", 90),
    ("COCC(C)n1oc(=O)c(Cc2ccccc2N(C(=O)Oc2ccccc2)S(=O)(=O)C(F)(F)F)c1C (centres unmarked) [Compound 1-765]", 90),
    ("Cc1c(Cc2ccccc2NS(=O)(=O)C(F)(F)F)c(=O)on1Cc1ccccc1 [Compound 1-180]", 90),
    ("Cc1c(Cc2ccccc2NS(=O)(=O)C(F)(F)F)c(=O)on1C1CCCCC1 [Compound 1-142]", 90),
    ("Cc1c(Cc2ccccc2N(S(=O)(=O)C(F)(F)F)S(=O)(=O)C(F)(F)F)c(=O)on1Cc1ccc(C(F)(F)F)cc1 [Compound 1-1021]", 40),
    ("CCC(C)n1oc(=O)c(Cc2ccccc2N(C(=O)c2ccccn2)S(=O)(=O)C(F)(F)F)c1C (centres unmarked) [Compound 1-528]", 90),
]
